# assay: Permeability across human Caco2 cells
# Format: ADME, cell-based
# condition.details: Caco-2, read-out: permeability
test.readout: Papp (×10⁻⁶ cm/s)

O=C(N[C@H]1C2CC3CC1C[C@](O)(C3)C2)N1CCN(c2ccc(N3CCN(S(=O)(=O)C4CC4)CC3)cn2)c2ccccc21 = 9.8
CS(=O)(=O)N1CCN(c2cnc(N3CCN(C(=O)N[C@H]4C5CC6CC4C[C@](O)(C6)C5)c4ccccc43)nc2)CC1 = 0.7
CS(=O)(=O)N1CCN(c2ccc(N3CCN(C(=O)N[C@H]4C5CC6CC4C[C@](O)(C6)C5)c4ccccc43)nc2)CC1 = 7.9
CS(=O)(=O)N1CCN(c2ccc(N3CCN(C(=O)N[C@H]4C5CC6CC4C[C@](C(N)=O)(C6)C5)c4ccccc43)cc2)CC1 = 3
CS(=O)(=O)N1CCN(c2ccc(N3CCN(C(=O)N[C@H]4C5CC6CC4C[C@](O)(C6)C5)c4ccccc43)cc2)CC1 = 19.4
CC(C)(C)N1CCN(c2ccc(N3CCN(C(=O)N[C@H]4C5CC6CC4C[C@](C(N)=O)(C6)C5)c4ccccc43)nc2)CC1 = 0.3

(1) COc1ccc(-c2cnc(N3CCN(C(=O)N[C@H]4C5CC6CC4C[C@](O)(C6)C5)c4ccccc43)nc2)cc1
(2) NC(=O)[C@]12CC3CC(C1)[C@@H](NC(=O)N1CCN(c4ccc(N5CCN(S(=O)(=O)C6CC6)CC5)cn4)c4ccccc41)C(C3)C2
q: Parameter metric = Papp. Return the lower-valued option from 1 and 2 . Could you answer with the label of the item you picked?
a: 2
(2: 0.4 ×10⁻⁶ cm/s, 1: 24.8 ×10⁻⁶ cm/s)

(1) CC(C)(C)N1CCN(c2ccc(N3CCN(C(=O)N[C@H]4C5CC6CC4C[C@](O)(C6)C5)c4ccccc43)nc2)CC1
(2) COc1ccc(-c2cnc(N3CCN(C(=O)N[C@H]4C5CC6CC4C[C@](C(N)=O)(C6)C5)c4ccccc43)nc2)cc1
q: Parameter metric = Papp. Return the lower-valued option from 1 and 2 . Could you answer with the label of the item you picked?
a: 1

====

# System: Liver microsomes
# assay: Metabolic stability in human liver microsomes
# Assay type: ADME, Microsome
test.readout: Stability (%)

Worked cases, answers included:
COc1ccc(-c2cnc(N3CCN(C(=O)N[C@H]4C5CC6CC4C[C@](O)(C6)C5)c4ccccc43)nc2)cc1 = 41
CC(=O)N1CCN(c2ccc(N3CCN(C(=O)N[C@H]4C5CC6CC4C[C@](O)(C6)C5)c4ccccc43)nc2)CC1 = 5
CS(=O)(=O)N1CCN(c2ccc(N3CCN(C(=O)N[C@H]4C5CC6CC4C[C@](O)(C6)C5)c4ccccc43)nc2)CC1 = 12
CS(=O)(=O)N1CCN(c2ccc(N3CCN(C(=O)N[C@H]4C5CC6CC4C[C@](C(N)=O)(C6)C5)c4ccccc43)cc2)CC1 = 3

(P) COc1ccc(-c2cnc(N3CCN(C(=O)N[C@H]4C5CC6CC4C[C@](C(N)=O)(C6)C5)c4ccccc43)nc2)cc1
(Q) COc1ccc(-c2cnc(N3CCN(C(=O)N[C@H]4C5CC6CC4C[C@](OC(N)=O)(C6)C5)c4ccccc43)nc2)cc1
q: // pick larger Stability from pair: P vs Q Could you answer with the label of the item you picked?
a: Q

====

# assay: Oral bioavailability in rat at 10 mg/kg
# Type: ADME, organism-based
# condition.details: in vivo
test.readout: bioavailability (%)
Expressed in %, but write only the number.

q: # lookup: bioavailability of CC(C)(C)N1CCN(c2ccc(N3CCN(C(=O)N[C@H]4C5CC6CC4C[C@](C(N)=O)(C6)C5)c4ccccc43)nc2)CC1
a: 25

The measurements presented in this section are drawn from ChEMBL document CHEMBL2380292.
